- assay-explanation: RP, Waters ACQUITY UPLC HSS T3, 150 × 2 mm, 1.7 µm, 30 °C, 0.4 mL/min, estimated dead time 0.75 min; A: water + 0.2% formic acid; B: 2% water + 98% acetonitrile + 0.2% formic acid; gradient (min/%B) 0/0 2.5/0 7.5/10 10/100 12/100 18/0 25/0
- condition: stereoisomer not certain
Below, each of the compounds is paired with its reported LC retention time value.
Respond with the bare value in min.

Record excerpt, results attached:
compound	measure-unit	LC retention time
OCC1OC(OC2(COC3(CO)OC(CO)C(O)C3O)OC(CO)C(O)C2O)C(O)C(O)C1O (stereo unspecified) [1-kestose]	min	1.88
O=C(O)c1nc2[nH]c(=O)[nH]c(=O)c2[nH]1 [xanthine-8-carboxylic acid]	min	4.71
COc1c2ccoc2c(OC)c2oc(=O)ccc12 [isopimpinellin]	min	1.66
O=C(O)CCCCCCC(=O)O [suberic acid]	min	9.43
CC(=O)OC1CC(C)C(C=O)C2(O)C1C(C)(C)CC2(C)C=O (stereo unspecified) [botrydial]	min	13.5
O=C(CO)COP(=O)(O)O [glycerone phosphate]	min	9.3
C=CC#CC#CC1=CC=C(C#CC)SS1 [thiarubrine A]	min	1.97
O=C(O)C=Cc1ccc(O)cc1 [4-coumaric acid]	min	8.99
O=C[C@H](O)[C@H](O)CO [D-erythrose]	min	1.67
C[C@H]([NH3+])C(=O)[O-] [L-alanine]	min	1.44

Next, consider the following compound.
Exam item: Tell me LC retention time reported for CC(C=CC1(O)C(C)=CC(=O)CC1(C)C)=CC(=O)O (single isomer, unassigned; (+)) [(+)-abscisic acid]
Marked response: 10.1
